- assaySystem: T1, cyno c-kit (recombinant, on BIAcore chip) (cynomolgus monkey)
- T1 chain: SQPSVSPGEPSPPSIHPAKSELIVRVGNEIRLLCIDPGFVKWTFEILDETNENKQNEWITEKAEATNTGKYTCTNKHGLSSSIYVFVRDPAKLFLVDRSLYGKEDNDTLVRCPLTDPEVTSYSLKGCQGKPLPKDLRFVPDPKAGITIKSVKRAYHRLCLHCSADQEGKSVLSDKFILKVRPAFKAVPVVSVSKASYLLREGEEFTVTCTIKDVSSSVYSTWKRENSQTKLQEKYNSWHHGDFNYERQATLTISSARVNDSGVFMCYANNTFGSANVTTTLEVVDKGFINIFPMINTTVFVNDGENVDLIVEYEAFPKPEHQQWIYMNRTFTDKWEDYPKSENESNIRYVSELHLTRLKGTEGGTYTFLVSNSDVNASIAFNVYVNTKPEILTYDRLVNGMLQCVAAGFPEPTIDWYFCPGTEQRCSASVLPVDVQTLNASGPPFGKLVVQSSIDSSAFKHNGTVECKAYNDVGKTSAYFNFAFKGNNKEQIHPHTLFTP
- measurementNotes: BIAcore, c-kit on SA chip
Recorded Kd by entry
quantityName: Kd (nM)

| binder | quantityName | result |
| --- | --- | --- |
| DOM28h-33 (other, dAb, C-terminal FLAG tag (pDOM10); also called DOM28h-033) EVQLLESGGGLVQPGGSLRLSCAVSGFTFWNYRMGWVRQAPGKGLEWVSSITPQGTHTYYADSVKGRFTISRDNSKNTLYLQMNSLRAEDTAVYYCAKILSMSENHFDYWGQGTLVTVSS | Kd | 98.5 |
| DOM28h-94 (other, VH dAb, C-terminal FLAG tag (pDOM10); also called DOM28h-094) VH: EVQLLESGGGLVQPGGSLRLSCAASGFTFFPYAMGWVRQAPGKGLEWVSFISGRGDTTYYADSVKGRFTISRDNSKNTLYLQMNSLRAEDTAVYYCAKTATSDLWNFDYWGQGTLVTVSS | Kd | 19200 |
| DOM28h-5 (other, dAb, C-terminal FLAG tag (pDOM10); also called DOM28h-005) DIQMTQSPSSLSASVGDRVTITCRASQWIGTALTWYQQKPGKAPKLLIYRGSYLQSGVPSRFSGSGSGTDFTLTISSLQPEDFATYYCQQRYFHPYTFGQGTRVEIKR | Kd | 550 |
| DOM28h-84 (other, dAb, C-terminal FLAG tag (pDOM10); also called DOM28h-084) EVQLLESGGGLVQPGGSLRLSCAASGFTFSSYGMSWVRQAPGKGLEWVSWISGTGSGTYYADSVKGRFTISRDNSKNTLYLQMNSLRAEDTAVYYCAKGVPGNNRALFDYWGQGTLVTVSS | Kd | 10200 |
| DOM28h-43 (other, dAb, C-terminal FLAG tag (pDOM10); also called DOM28h-043) DIQMTQSPSSLSASVGDRVTITCRASSPIGESLKWYQQKPGKAPKLLIWGGSWLQSGVPSRFSGSGSGTDFTLTISSLQPEDFATYYCGPGRGWPLTFGQGTKVEIKR | Kd | 345 |
